Molecular target: PDE5cd R792L/E796V/I799Q/A823F (human, UniProt O76074 535-860, R792L | E796V | I799Q | A823F)
Experiment: inhibition of PDE activity
measure: pKi
Lab note: report pKi as minus log10 of the concentration in molar units, number only.

Prompt line: Any idea what pKi was measured for DITVICPWEAFNHLELHELAQYGII (peptide, UniProt P04972 63-87, looked up) [Pγ C-terminal peptide Pγ_(63-87)] ?
Response line: 4.63
